Let's look at some compounds and their measured Cmax.
test: Individual predicted steady‐state exposures; format: in vivo, human; conditions: human, plasma, C max,ss geometric mean (CV), Obesity: Normal
Recorded Endpoint: Cmax

Structure As Smiles	Observed Result
CC(C)(O/N=C(\C(=O)N[C@@H]1C(=O)N2C(C(=O)[O-])=C(C[n+]3ccccc3)CS[C@H]12)c1csc(N)n1)C(=O)O	73000 ng/mL
NC(=O)[C@@H]1CC[C@@H]2CN1C(=O)N2OS(=O)(=O)O	13000 ng/mL

###

assay: Individual predicted steady‐state exposures; format: in vivo, human; details: human, plasma, intravenous, C max,ss geometric mean (CV), Asian population: Vietnam
Listing: Cmax of selected compounds
Recorded Endpoint: Cmax (ng/mL)

Structure As Smiles	Unit Of Measurement	Observed Result
NC(=O)[C@@H]1CC[C@@H]2CN1C(=O)N2OS(=O)(=O)O	ng/mL	14600
CC(C)(O/N=C(\C(=O)N[C@@H]1C(=O)N2C(C(=O)[O-])=C(C[n+]3ccccc3)CS[C@H]12)c1csc(N)n1)C(=O)O	ng/mL	78600
